- Test method notes: in vitro
- Conditions used: African green monkey
Assign CC50 to each entry below.

| Compound | CC50 |
| --- | --- |
| O=C(OC[C@H]1O[C@@H](OC(=O)c2cc(O)c(O)c(O)c2)[C@H](OC(=O)c2cc(O)c(O)c(O)c2)[C@@H](OC(=O)c2cc(O)c(O)c(O)c2)[C@@H]1OC(=O)c1cc(O)c(O)c(O)c1)c1cc(O)c(O)c(O)c1 [PGG, 1,2,3,4,6-penta-O-galloyl-beta-D-glucose] | > 50 µM |

Reported CC50 for Oc1cc(O)c2c(c1)OC(c1ccc(O)c(O)c1)C(OC1(c3ccc(O)c(O)c3)Oc3cc(O)cc(O)c3C(O)C1O)C2 (centres unmarked) [PAC, proanthocyanidin] was > 50 µM
